Measured protein stability index accompanies every entry in the list below.
B1: SEC22B (parent)
chain: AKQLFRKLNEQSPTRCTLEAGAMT

variants of: B1; experiment: protein stability index of a GFP-peptide fusion (GPS, HEK-293T) (PSI 1-6); higher = more stable; conditions: c terminus: a fixed tail appended;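 further: lentivirally expressed fusions sorted by FACS into six bins by GFP to DsRed ratio, PSI derived from sequencing read proportions per bin multiplied by bin number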
Give the value as a plain number.

Please review the following examples before continuing.
{"Mutant designation": "A22L", "Assay value": 1.58}
{"Mutant designation": "G21T", "Assay value": 1.86}
{"Mutant designation": "K7A", "Assay value": 1.97}
{"Mutant designation": "Q3W", "Assay value": 2.53}
{"Mutant designation": "T17K", "Assay value": 1.94}

Query (variant): `C16R` ; field requested: protein stability index
3.27
